Target: Ecdysone receptor (Drosophila melanogaster, UniProt P20153+P34021)
Sequence (P34021 whole entry): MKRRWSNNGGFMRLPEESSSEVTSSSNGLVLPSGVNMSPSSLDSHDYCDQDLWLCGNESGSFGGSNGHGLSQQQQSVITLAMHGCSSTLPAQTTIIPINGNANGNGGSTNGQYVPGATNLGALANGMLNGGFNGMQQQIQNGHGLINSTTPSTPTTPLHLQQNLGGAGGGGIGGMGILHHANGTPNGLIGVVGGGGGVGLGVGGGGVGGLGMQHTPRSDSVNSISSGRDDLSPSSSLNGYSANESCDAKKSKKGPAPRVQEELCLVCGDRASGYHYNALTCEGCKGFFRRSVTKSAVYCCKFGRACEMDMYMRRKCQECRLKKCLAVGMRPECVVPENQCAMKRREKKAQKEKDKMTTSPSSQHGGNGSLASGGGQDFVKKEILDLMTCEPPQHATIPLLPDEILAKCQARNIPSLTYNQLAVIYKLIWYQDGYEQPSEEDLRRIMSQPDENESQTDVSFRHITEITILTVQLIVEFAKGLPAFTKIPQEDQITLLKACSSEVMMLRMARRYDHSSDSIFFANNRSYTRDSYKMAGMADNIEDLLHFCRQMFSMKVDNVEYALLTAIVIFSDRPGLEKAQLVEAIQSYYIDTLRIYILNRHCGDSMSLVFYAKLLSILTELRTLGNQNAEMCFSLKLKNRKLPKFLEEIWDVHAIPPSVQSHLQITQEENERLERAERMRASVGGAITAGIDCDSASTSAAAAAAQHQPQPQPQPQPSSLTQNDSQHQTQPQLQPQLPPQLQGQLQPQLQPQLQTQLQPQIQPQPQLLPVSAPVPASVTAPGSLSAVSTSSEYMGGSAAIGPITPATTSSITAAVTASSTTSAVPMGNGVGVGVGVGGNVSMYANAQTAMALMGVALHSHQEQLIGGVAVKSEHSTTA
Sequence (P20153 whole entry): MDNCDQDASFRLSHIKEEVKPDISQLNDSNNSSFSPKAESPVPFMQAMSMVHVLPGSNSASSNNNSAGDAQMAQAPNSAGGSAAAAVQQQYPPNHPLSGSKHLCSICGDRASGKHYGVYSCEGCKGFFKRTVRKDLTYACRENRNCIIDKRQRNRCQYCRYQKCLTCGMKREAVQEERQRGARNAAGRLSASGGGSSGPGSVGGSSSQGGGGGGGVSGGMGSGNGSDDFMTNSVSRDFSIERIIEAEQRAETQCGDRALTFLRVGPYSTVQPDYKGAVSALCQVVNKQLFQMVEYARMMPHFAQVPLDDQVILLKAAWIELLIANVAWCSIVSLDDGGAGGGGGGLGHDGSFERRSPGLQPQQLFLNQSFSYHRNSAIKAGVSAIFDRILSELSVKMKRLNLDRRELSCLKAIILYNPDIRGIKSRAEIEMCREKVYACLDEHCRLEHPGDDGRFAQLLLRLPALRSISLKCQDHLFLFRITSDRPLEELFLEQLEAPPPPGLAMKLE
Assay: Agonist activity at ecdysone receptor in Drosophila melanogaster S2 cells after 24 hr by luciferase reporter gene assay
Assay type: cell-based
EC50 by entry:
Use µM as the unit, but write only the number.

Exercise: Specify EC50 for `Cc1ccccc1C(=O)NN(C(=O)c1ccccc1Cl)C(C)(C)C` and stop.
Solution: 25.7

Exercise: Look up and state reported EC50 for `CC(C)(C)N(NC(=O)c1ccccc1Cl)C(=O)c1ccccc1Cl`
Solution: 105

Exercise: Give reported EC50 value for `COc1cccc(C(=O)NN(C(=O)c2ccccc2Cl)C(C)(C)C)c1`
Solution: 72.4

Exercise: For the compound `Cc1ccccc1C(=O)N(NC(=O)c1ccccc1)C(C)(C)C` , give its reported EC50.
Solution: 120

Exercise: Item `COc1ccc(C(=O)NN(C(=O)c2ccccc2Cl)C(C)(C)C)cc1` : provide EC50
Solution: 11.2

Exercise: Look up and state reported EC50 for `CC(C)(C)N(NC(=O)c1ccc(I)cc1)C(=O)c1ccccc1Cl`
Solution: 7.08

----------
Target: Ecdysone receptor (Drosophila melanogaster) (UniProt P34021+P20153)
Test: Agonist activity at ecdysone receptor in Drosophila melanogaster S2 cells at 100 uM after 24 hr by luciferase reporter gene assay relative to 20-hydroxyecdysone
Assay type: cell-based
Decide by Efficacy: equal to or exceeding 50% means Fulfilled, less means Not fulfilled.

Worked set:
Smiles Notation: CC(C)(C)N(NC(=O)c1cccc(C#N)c1)C(=O)c1ccccc1Cl
Answer Label: Fulfilled
//
Smiles Notation: CC(C)(C)N(NC(=O)c1ccccc1F)C(=O)c1ccccc1Cl
Answer Label: Fulfilled

Exercise: API: above_or_equal(metric=Efficacy, cutoff=50%) for item `O=C(NN(C(=O)c1ccccc1)C1CCCCC1)c1ccccc1`
Solution: Not fulfilled

Exercise: Dear colleague, could you confirm whether `CC(C)(C)N(NC(=O)c1cccc(Cl)c1Cl)C(=O)c1ccccc1Cl` has Efficacy at or above 50%?
Solution: Fulfilled

Exercise: Determine whether this compound has Efficacy no lower than 50%: `CC(C)(C)N(NC(=O)c1ccccc1)C(=O)c1ccccc1I`
Solution: Fulfilled

Exercise: Could you tell me if the measured Efficacy of `CC(C)(C)N(NC(=O)c1ccc(F)cc1)C(=O)c1ccccc1Cl` reaches 50% or more?
Solution: Fulfilled

Exercise: Could you please find out whether `CC(C)(C)N(NC(=O)c1ccccc1)C(=O)c1ccc(Cl)cc1Cl` has Efficacy that meets 50% or exceeds it?
Solution: Not fulfilled

Exercise: Reported Efficacy reaches at least 50% for `Cc1ccc(C)c(C(=O)NN(C(=O)c2ccccc2Cl)C(C)(C)C)c1` ?
Solution: Not fulfilled

Exercise: Hello, I need to know if `COc1cccc(C(=O)NN(C(=O)c2cc(C)cc(C)c2)C(C)(C)C)c1` has measured Efficacy not below 50%. Thanks!
Solution: Fulfilled

Exercise: Please tell me: is the compound `CC(C)(C)N(NC(=O)c1ccccc1)C(=O)c1ccccc1[N+](=O)[O-]` at or over 50% in terms of Efficacy?
Solution: Fulfilled

Exercise: Does the reported Efficacy for `CC(C)(C)N(NC(=O)c1cccc(Cl)c1)C(=O)c1ccccc1Cl` fall at or above the 50% mark?
Solution: Fulfilled

----------
Target: Ecdysone receptor (Drosophila melanogaster, UniProt P20153+P34021)
Assay: Agonist activity at ecdysone receptor in Drosophila melanogaster S2 cells after 24 hr by luciferase reporter gene assay
Type: cell-based
Each entry below carries its reported pEC50.
The value called pEC50 is obtained by taking minus log10 of the concentration in mol/L.

// below: answered compounds
Compound: CC(C)(C)N(NC(=O)c1ccccc1)C(=O)c1ccc(Cl)cc1Cl
Target Desc: Ecdysone receptor (Drosophila melanogaster, UniProt P20153+P34021)
pEC50: 3.83

Compound: CC(C)(C)N(NC(=O)c1ccccc1)C(=O)c1ccccc1 [RH-5849]
Target Desc: Ecdysone receptor (Drosophila melanogaster, UniProt P20153+P34021)
pEC50: 4.43

Compound: COc1cccc(C(=O)NN(C(=O)c2cc(C)cc(C)c2)C(C)(C)C)c1
Target Desc: Ecdysone receptor (Drosophila melanogaster, UniProt P20153+P34021)
pEC50: 4.34

Exercise: Let me know recorded pEC50 for `CC(C)(C)N(NC(=O)c1cccc(F)c1)C(=O)c1ccccc1Cl` , thanks.
Solution: 4.59

Exercise: Fill in reported pEC50 for this entry: `CC(C)(C)N(NC(=O)c1cccc(C#N)c1)C(=O)c1ccccc1Cl`
Solution: 4.44

Exercise: Give a short answer stating reported pEC50 for `CC(C)(C)N(NC(=O)c1ccccc1I)C(=O)c1ccccc1Cl` .
Solution: 4.06

Exercise: In one line, give reported pEC50 of the entry `Cc1ccc(C(=O)NN(C(=O)c2ccccc2Cl)C(C)(C)C)c(C)c1` .
Solution: 3.89

----------
Molecular target: Ecdysone receptor (Drosophila melanogaster) (UniProt P34021+P20153)
Assay: Agonist activity at ecdysone receptor in Drosophila melanogaster S2 cells at 10 uM after 24 hr by luciferase reporter gene assay relative to 20-hydroxyecdysone
Format: cell-based
Outcome Measure: Efficacy
Could you write the number and then its unit?

# example entries with known answers
Molecule: Cc1cc(C)cc(C(=O)N(NC(=O)c2ccc(Cl)cc2)C(C)(C)C)c1
Outcome Measure: Efficacy
Reported: 42%
//
Molecule: CCc1ccc(C(=O)NC2(C(=O)c3cc(C)cc(C)c3)CCCCC2)cc1
Outcome Measure: Efficacy
Reported: 4%
//
Molecule: CC(C)(C)N(NC(=O)c1ccccc1)C(=O)c1ccccc1Cl
Outcome Measure: Efficacy
Reported: 57%
//
Molecule: Cc1ccc(C(=O)NN(C(=O)c2cc(C)cc(C)c2)C(C)(C)C)cc1
Outcome Measure: Efficacy
Reported: 46%

Exercise: Lab note: Ecdysone receptor (Drosophila melanogaster) (UniProt P34021+P20153) assay, enter Efficacy for CCc1ccc(C(=O)NN(C(=O)c2cc(C)cc(C)c2)C(C)(C)C)cc1 [TEBUFENOZIDE] here
Solution: 52%

Exercise: Using Ecdysone receptor (Drosophila melanogaster) (UniProt P34021+P20153) as the test system, report measured Efficacy of Cc1ccc(NC2CC(C)N(C(=O)c3ccc(Cl)cc3)c3ccc(C)cc32)cc1 (stereo not drawn) .
Solution: 9%

Exercise: Give Efficacy only, for Cc1ccc(NC2CC(C)N(C(=O)c3ccc(C)cc3)c3ccc(C)cc32)cc1 (stereo not drawn) , using Ecdysone receptor (Drosophila melanogaster) (UniProt P34021+P20153) data.
Solution: 11%

Exercise: // fetch Efficacy; item: `CCCc1ccc(C(=O)NN(C(=O)c2ccccc2Cl)C(C)(C)C)cc1` ; system: Ecdysone receptor (Drosophila melanogaster) (UniProt P34021+P20153)
Solution: 52%

----------
Molecular target: Ecdysone receptor (Drosophila melanogaster) (UniProt P34021+P20153)
Assay: Agonist activity at ecdysone receptor in Drosophila melanogaster S2 cells at 100 uM after 24 hr by luciferase reporter gene assay relative to 20-hydroxyecdysone
Assay type: cell-based
Let's look at some molecules and their measured Efficacy.
# unit: % | format: bare number

Below, each entry is followed by its recorded Efficacy result.
Molecule: CC(C)(C)N(NC(=O)c1ccc(Cl)cc1)C(=O)c1ccccc1Cl
Unit Spec: %
Efficacy: 52
//
Molecule: Cc1ccccc1C(=O)N(NC(=O)c1ccccc1)C(C)(C)C
Unit Spec: %
Efficacy: 45
//
Molecule: Cc1cccc(C(=O)NN(C(=O)c2ccccc2Cl)C(C)(C)C)c1C
Unit Spec: %
Efficacy: 76
//
Molecule: CCc1ccc(C(=O)NN(C(=O)c2ccccc2)C(C)(C)C)cc1
Unit Spec: %
Efficacy: 52
//
Molecule: CC(C)(C)N(NC(=O)c1c(F)cccc1F)C(=O)c1ccccc1Cl
Unit Spec: %
Efficacy: 23
//
Molecule: COc1ccccc1C(=O)N(NC(=O)c1ccccc1)C(C)(C)C
Unit Spec: %
Efficacy: 44

Exercise: Name the recorded Efficacy of the item `CC(C)(C)N(Cc1ccccc1)NC(=O)c1ccccc1` in your answer.
Solution: 1

Exercise: For the molecule `CCc1ccccc1C(=O)N(NC(=O)c1ccccc1)C(C)(C)C` , give its reported Efficacy.
Solution: 50

Exercise: Note Efficacy for the molecule shown: `CCCCCC(=O)NN(C(=O)c1cc(C)cc(C)c1)C(C)(C)C`
Solution: 36

Exercise: Supply measured Efficacy of `CC(C)(C)N(NC(=O)c1ccccc1Cl)C(=O)c1ccccc1Cl` in your reply.
Solution: 48

Exercise: Return the recorded Efficacy value; entry: `CCCCN(NC(=O)c1ccccc1)C(=O)c1ccccc1`
Solution: 4

Exercise: Name the recorded Efficacy of the item `Cc1ccc(C(=O)NN(C(=O)c2ccccc2Cl)C(C)(C)C)cc1C` in your answer.
Solution: 60

Exercise: Report Efficacy for `CC(C)(C)N(NC(=O)c1ccccc1I)C(=O)c1ccccc1Cl`
Solution: 54

Exercise: Consider the molecule `CC(C)c1ccc(C(=O)NN(C(=O)c2ccccc2Cl)C(C)(C)C)cc1` . State its measured Efficacy.
Solution: 88

Exercise: Supply reported Efficacy belonging to this molecule: `Cc1ccccc1C(=O)NN(C(=O)c1ccccc1Cl)C(C)(C)C`
Solution: 83

Exercise: Look up and state reported Efficacy for `CC(=O)c1ccc(C(=O)NN(C(=O)c2ccccc2Cl)C(C)(C)C)cc1`
Solution: 7

Exercise: Output Efficacy of `CC(C)(C)N(NC(=O)c1ccccc1Br)C(=O)c1ccccc1Cl`
Solution: 59

Exercise: Let me know recorded Efficacy for `Cc1cc(C)cc(C(=O)N(NC(=O)CCC(C)C)C(C)(C)C)c1` , thanks.
Solution: 35

Exercise: Write down Efficacy measured for item `COc1cccc(C(=O)NN(C(=O)c2ccccc2Cl)C(C)(C)C)c1`
Solution: 58

Exercise: Note down Efficacy recorded for `CC(C)(C)N(NC(=O)c1ccc(C#N)cc1)C(=O)c1ccccc1Cl`
Solution: 52

Exercise: Item CCc1ccc(C(=O)NN(C(=O)C2CC=CCC2)C(C)(C)C)cc1 (centres undefined) : provide Efficacy
Solution: 1

Exercise: Read off the recorded Efficacy for CC1CC(Nc2ccc(F)cc2)c2cc(F)ccc2N1C(=O)c1ccc(Cl)cc1 (centres undefined)
Solution: 12

Exercise: Consider the molecule `Cc1cc(C)cc(C(=O)N(NC(=O)c2ccccc2)C(C)(C)C)c1` . State its measured Efficacy.
Solution: 57
